Test system: PriA–SSB C-terminal tail interaction (Klebsiella pneumoniae)
protocol: blocks PriA binding to SSB C-terminal tail, primary screen, biochemical, AlphaScreen (AID 1272365);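 also: plate controls were negative control peptide for no effect and reference peptide for full effect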
experimental-setup: AlphaScreen SSBct-PriA binding, biotinylated peptide; at 33 µM, hits give high values
Screen size: about 430,000 compounds; about 2,600 (0.6%) were called active. What follows is part of a selection rich in actives, with near analogues and random picks from the rest.
outcome-measure: inhibition (%)

- compound: "CN1CCN(c2nc3ccc(NC(=O)c4ccc5c(c4)OCO5)cc3s2)CC1"
  recorded-value: -2
- compound: "O=C(NCC(F)(F)F)C1CCN(c2cc(-n3cncn3)ncn2)CC1"
  recorded-value: 4
- compound: "FC(F)Sc1ccc(-c2csc(Nc3ccccc3)n2)cc1"
  recorded-value: -4
- compound: "CCN(CC)CCC(c1ccc2c(c1)OCO2)c1c(OC)cc(OC)c2c(-c3ccccc3)cc(=O)oc12 (configuration not stated)"
  recorded-value: 24.5
- compound: "O=C(NCc1cccs1)C(=O)Nc1cccc(F)c1"
  recorded-value: -15
- compound: "Cn1c(=O)c2nc(SCC(=O)Nc3ccc(F)c([N+](=O)[O-])c3)n(C)c2n(C)c1=O"
  recorded-value: -5
- compound: "Cc1cc(-c2nnc(NC(=O)Cc3ccccc3)o2)n(C)n1"
  recorded-value: 14
- compound: "COc1ccc(NC(=O)NCC(c2ccc3c(c2)CCCN3C)N2CCCC2)cc1OC (configuration not stated)"
  recorded-value: 25
- compound: "COc1cccc2cc(C(=O)C3=C(O)C(=O)N(CCN(C)C)[C@@H]3c3ccccc3F)oc12"
  recorded-value: -20
- compound: "CCCCN(C1CCS(=O)(=O)C1)S(C)(=O)=O (configuration not stated)"
  recorded-value: 10
- compound: "Cc1ccc(C(=O)N/C(=C\\c2cccs2)C(=O)NCCc2ccccn2)cc1C"
  recorded-value: -25.3
- compound: "O=S(=O)(Cc1ccccc1)NCC1CCN(c2cnccn2)CC1"
  recorded-value: -1
- compound: "CCOC(=O)c1c(NC(=O)CSc2nnc(CN3CCOCC3)n2C)sc2c1CCCC2"
  recorded-value: -3.23
- compound: "O=C1/C(=C/c2cccs2)Oc2c1ccc1c2CN(Cc2ccccn2)CO1"
  recorded-value: 101
- compound: "CCOC(=O)c1ccccc1NC(=O)Cn1cnc2c(cnn2-c2ccc(C)cc2C)c1=O"
  recorded-value: 20
- compound: "COc1ccc(CC(=O)NCC(c2ccsc2)N2CCc3ccccc3C2)cc1 (configuration not stated)"
  recorded-value: -5
- compound: "COc1ccc(C)cc1NC(=O)CSc1ncc(-c2ccccc2)n1C"
  recorded-value: -3
- compound: "COc1cc(/C=C2\\Oc3cc(OCC(=O)O)ccc3C2=O)cc(OC)c1OC"
  recorded-value: -2
- compound: "Cc1cc(-c2nnc(NC(=O)C(c3ccccc3)c3ccccc3)o2)nn1C"
  recorded-value: 85
- compound: "O=C(CN1C(=O)COc2ccc(Cl)cc21)Nc1ccc(N2CCOCC2)cc1"
  recorded-value: -6.86
- compound: "O=C(c1cc(Cl)sc1Cl)N(CC1CCCO1)c1nc2c(F)cc(F)cc2s1 (configuration not stated)"
  recorded-value: -20
- compound: "CC(OC(=O)CN1C(=O)COc2ccccc21)C(=O)NCc1ccc(F)cc1 (configuration not stated)"
  recorded-value: 4.53

---

Tested on: PriA–SSB C-terminal tail interaction (Klebsiella pneumoniae)
protocol: blocks PriA binding to SSB C-terminal tail, primary screen, biochemical, AlphaScreen (AID 1272365);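 also: plate controls were negative control peptide for no effect and reference peptide for full effect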
experimental-setup: AlphaScreen SSBct-PriA binding, biotinylated peptide; at 33 µM, hits give high values
In all, about 430,000 compounds went through this assay and about 2,600 (0.6%) were called active. The full list was thinned out, with actives kept by preference.
Parameter threshold = 10%. Response is class 1 when inhibition meets or exceeds it, else class 0.

- smiles-string: "O=C(NCCn1nc(C(F)(F)F)c2c1CCCC2)c1c(F)cccc1Cl"
  tested-on: "PriA–SSB C-terminal tail interaction (Klebsiella pneumoniae)"
  assigned-label: "class 0"
- smiles-string: "CC(C)c1ccc(/C=C2\\CC/C(=C\\C=NN(C)C)C2=O)cc1"
  tested-on: "PriA–SSB C-terminal tail interaction (Klebsiella pneumoniae)"
  assigned-label: "class 0"
- smiles-string: "O=C(CSc1ccc(-c2ccccn2)nn1)Nc1ccccc1"
  tested-on: "PriA–SSB C-terminal tail interaction (Klebsiella pneumoniae)"
  assigned-label: "class 1"
- smiles-string: "COc1ccc(C=Nc2cccc3ncccc23)cc1"
  tested-on: "PriA–SSB C-terminal tail interaction (Klebsiella pneumoniae)"
  assigned-label: "class 1"
- smiles-string: "O=C(Nc1nc(CCC(=O)N2CCN(c3ncccn3)CC2)cs1)NC1CCCCC1"
  tested-on: "PriA–SSB C-terminal tail interaction (Klebsiella pneumoniae)"
  assigned-label: "class 0"
- smiles-string: "CC(C)c1nnc(NC(=O)/C=C/c2cccs2)s1"
  tested-on: "PriA–SSB C-terminal tail interaction (Klebsiella pneumoniae)"
  assigned-label: "class 0"
- smiles-string: "Cc1cc(OC2CN(C(=O)C(C)(C)Oc3ccc(Cl)cc3)C2)cc(=O)n1C"
  tested-on: "PriA–SSB C-terminal tail interaction (Klebsiella pneumoniae)"
  assigned-label: "class 0"
- smiles-string: "O=C(CSc1ccc(-c2ccc(-n3cccn3)cc2)nn1)Nc1ccc([N+](=O)[O-])cc1"
  tested-on: "PriA–SSB C-terminal tail interaction (Klebsiella pneumoniae)"
  assigned-label: "class 0"
- smiles-string: "C=CCn1c(N=Cc2ccc(OC)cc2)nc2ccccc21"
  tested-on: "PriA–SSB C-terminal tail interaction (Klebsiella pneumoniae)"
  assigned-label: "class 1"
- smiles-string: "CSc1ccc(NC(=O)c2ccccc2F)nn1"
  tested-on: "PriA–SSB C-terminal tail interaction (Klebsiella pneumoniae)"
  assigned-label: "class 0"
- smiles-string: "COc1ccccc1CCNC(=O)CSc1ccc(-c2ccccn2)nn1"
  tested-on: "PriA–SSB C-terminal tail interaction (Klebsiella pneumoniae)"
  assigned-label: "class 1"

---

System: PriA–SSB C-terminal tail interaction (Klebsiella pneumoniae)
protocol: blocks PriA binding to SSB C-terminal tail, primary screen, biochemical, AlphaScreen (AID 1272365);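 also: plate controls were negative control peptide for no effect and reference peptide for full effect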
experimental-setup: AlphaScreen SSBct-PriA binding, biotinylated peptide; at 33 µM
Hit rate of the full screen: of about 430,000 compounds, about 2,600 (0.6%) were called active. Rule as the data show it: active = inhibition mostly above about 37% (no sharp cut-off); inactive = mostly below about 20%. The sample holds actives, similar compounds and a random draw of the others, so the mix is not that of the screen.
Outcome codes: active, inactive

- molecule: "O=C(c1ccc(Cl)s1)N(Cc1nnc(-c2ccccc2Cl)o1)C1CC1"
  assigned-label: "inactive"
- molecule: "COc1ccccc1-n1cnc2cc(NS(=O)(=O)c3ccccc3)ccc21"
  assigned-label: "active"
- molecule: "Cc1cccc(C(=O)Nc2nnc(Cc3c[nH]c4ccccc34)s2)c1"
  assigned-label: "inactive"
- molecule: "Cc1ccc(NS(=O)(=O)c2ccc(F)cc2)nc1"
  assigned-label: "inactive"
- molecule: "CCCN1CCCc2cc(CCNC(=O)CCC3CCCC3)ccc21"
  assigned-label: "active"
- molecule: "CCOCC(=O)NCc1ccc2c(c1)cc(C)n2C"
  assigned-label: "inactive"
- molecule: "Cc1ccc(CN2CC(C(=O)N3CCN(S(=O)(=O)c4ccccc4)CC3)CC2=O)cc1 (stereo not drawn)"
  assigned-label: "inactive"
- molecule: "CCOC(=O)c1ccc(NC(=O)c2cc(=O)[nH]cn2)cc1"
  assigned-label: "inactive"
- molecule: "O=c1oc2ccccc2cc1-c1nc(-c2ccncc2)n[nH]1"
  assigned-label: "inactive"
- molecule: "O=C(Nc1cnc(-n2ccnc2)nc1)c1ccccc1Cl"
  assigned-label: "inactive"
- molecule: "CC(C)(C)NC(=O)COC(=O)c1cc(Cl)ccc1[N+](=O)[O-]"
  assigned-label: "inactive"
- molecule: "COc1ccc(S(=O)(=O)N2CCOCC2)cc1NC(=O)CSc1ncnc2ccccc12"
  assigned-label: "inactive"
- molecule: "c1ccc(OCc2nc(-c3ccccn3)n[nH]2)cc1"
  assigned-label: "active"
- molecule: "O=C(Cc1nnc(-c2ccc3ncccc3c2)o1)NCc1ccc(Cl)cc1"
  assigned-label: "inactive"
- molecule: "Cc1cc(C)c(S(=O)(=O)Nc2ccc3c(c2)CCCN3C(=O)c2ccco2)c(C)c1"
  assigned-label: "inactive"
- molecule: "Cc1cc(NC(=O)COC(=O)COc2ccc(Cl)cc2C)c([N+](=O)[O-])cc1C"
  assigned-label: "inactive"
- molecule: "Cc1ccc(S(=O)(=O)Nc2c(S(=O)(=O)c3ccccc3)c3nc4ccccc4nc3n2Cc2ccccc2)cc1"
  assigned-label: "inactive"
- molecule: "O=C(CSc1cccc2cccnc12)Nc1ccc(Br)cc1"
  assigned-label: "inactive"
- molecule: "COc1ccc(OC)c(NC(=S)NCc2ccc3c(c2)cc(C)n3C)c1"
  assigned-label: "active"
- molecule: "Cn1cccc1-c1noc(CNC(=O)c2n[nH]c(=O)c3ccccc23)n1"
  assigned-label: "inactive"
- molecule: "CCCN1CCCc2cc(CCNC(=O)Cc3ccc(OC)cc3)ccc21"
  assigned-label: "inactive"
- molecule: "C=CCn1c(C)cc(C2=NNC(=NCC)SC2)c1C"
  assigned-label: "inactive"
- molecule: "Cn1nc(CNS(=O)(=O)/C=C/c2ccccc2)c2c1CCCC2"
  assigned-label: "inactive"
- molecule: "COCCCNC(=O)c1ccc2c(c1)ncn2-c1ccccc1OC"
  assigned-label: "inactive"
- molecule: "O=C(NCCc1ccc(N2CCCC2)cc1)c1ccco1"
  assigned-label: "inactive"
- molecule: "CCCCOCCCn1c(NS(=O)(=O)c2ccccc2)c(S(=O)(=O)c2ccc(C)cc2)c2nc3ccccc3nc21"
  assigned-label: "active"
- molecule: "CCCC(=O)OCC(=O)Nc1cc(Cl)ccc1[N+](=O)[O-]"
  assigned-label: "active"
- molecule: "COc1ccc(F)cc1S(=O)(=O)Nc1ccc2c(c1)CCCN2S(=O)(=O)c1ccccc1"
  assigned-label: "inactive"
- molecule: "c1ccc(-c2cn3c(n2)CCc2ccc4cccnc4c2-3)cc1"
  assigned-label: "active"
- molecule: "CC(=O)Nc1ccc(C(=O)N2CCc3nc4ccc(Cl)cn4c(=O)c3C2)cc1"
  assigned-label: "inactive"
- molecule: "O=C(c1cc(-c2ccco2)nc2ccccc12)N(Cc1nnc(-c2ccc(Cl)cc2)o1)C1CC1"
  assigned-label: "active"
- molecule: "Cc1c(NC(=O)COc2cccc(OCCC(C)C)c2)c(=O)n(-c2ccccc2)n1C"
  assigned-label: "inactive"
- molecule: "COc1ccc(OCc2nc(-c3ccccn3)n[nH]2)cc1"
  assigned-label: "active"
- molecule: "Cc1cccc(N=C2NN=C(c3c[nH]c4ccccc34)CS2)c1"
  assigned-label: "active"
- molecule: "Cc1ccc(NC(=O)C2CCCN2S(=O)(=O)c2cccc3cccnc23)c(C)c1 (stereo not drawn)"
  assigned-label: "inactive"
- molecule: "CCCCn1c(NS(=O)(=O)c2ccc(Cl)cc2)c(S(=O)(=O)c2ccc(C)cc2)c2nc3ccccc3nc21"
  assigned-label: "inactive"
- molecule: "COc1ccc(S(=O)(=O)N2CCOCC2)cc1NC(=O)Cc1coc2cc(C)ccc12"
  assigned-label: "inactive"
- molecule: "COC(=O)c1sccc1S(=O)(=O)NCc1ccc(C(=O)c2ccco2)s1"
  assigned-label: "inactive"
- molecule: "CCCCOCCCn1c(NS(=O)(=O)c2ccc3ccccc3c2)c(S(=O)(=O)c2ccc(C)cc2)c2nc3ccccc3nc21"
  assigned-label: "active"
- molecule: "CCC(C)c1ccccc1N1CC(C(=O)N2CCN(S(=O)(=O)c3ccc(F)cc3)CC2)CC1=O (stereo not drawn)"
  assigned-label: "active"
- molecule: "COc1ccccc1CCNC(=O)C(=O)NC[C@@H](c1ccco1)N1CCc2ccccc21"
  assigned-label: "inactive"
- molecule: "Cc1ccc(Nc2ccc(NCCN)nn2)nc1"
  assigned-label: "active"
- molecule: "CCCN1CCCc2cc(CCNC(=O)c3ccco3)ccc21"
  assigned-label: "active"
